Sourced from paper PMC8364686

Assay: Plasma pharmacokinetics of BI 187004 after single oral doses (LC–MS/MS)
Conditions: male, human, plasma, po, 5 mg, Plasma concentration Mean, 5 mg single oral; 3 h
metric-name: concentration at 3 h (nM)
One number for each entry, in nM.

Asked: Suppose we examine the compound N#Cc1ccc2c(c1)[C@H]1CCCN(C(=O)c3ccc4[nH]cnc4c3)[C@H]1C2 ; what concentration at 3 h value has been reported?
Given back: 114

---

Experiment: Plasma pharmacokinetics of BI 187004 after single oral doses (LC–MS/MS)
Conditions: male, human, plasma, po, 20 mg, BI 187004 plasma concentrations, 20 mg single oral, planned time 10 h, Mean
metric-name: concentration at 10 h (nM)
Give bare numbers, in nM.

Asked: Suppose we examine the molecule N#Cc1ccc2c(c1)[C@H]1CCCN(C(=O)c3ccc4[nH]cnc4c3)[C@H]1C2 ; what concentration at 10 h value has been reported?
Given back: 398
